# protocolNotes: Thermal treatment test: yellow coloration index after heating
# Type: physicochemical
# conditions: isosorbide solution with 100 ppm antioxidant; 245°C for 40 minutes under nitrogen
Returns: string. Value is YES if measured Yellow coloration index after thermal test is below 10 YID, and NO if it is greater than or equal to it.

O=C(c1ccccc1)c1ccccc1    YES
COc1ccc(C(=O)c2ccccc2)c(O)c1 [Sample 2.3, 2-hydroxy-4-methoxybenzophenone]    YES
O=C(c1ccc(O)cc1)c1ccc(O)cc1 [Sample 2.2, 4,4'-dihydroxy-benzophenone]    YES
COc1ccc(C(=O)c2ccccc2O)c(O)c1 [Sample 2.4, 2,2'-dihydroxy-4-methoxybenzophenone]    NO
CCCOC(=O)c1cc(O)c(O)c(O)c1 [Sample 3, Propyl gallate, reference compound]    NO

----------
# protocolNotes: Thermal treatment test: yellow coloration index after heating
# Assay type: physicochemical
# conditions: difference after minus before thermal test; 100 ppm antioxidant
Returns: string. Value is Met if measured Yellow coloration index After-Before is below 5 YID, and Not met if it is greater than or equal to it.

CCCOC(=O)c1cc(O)c(O)c(O)c1 [Sample 3, Propyl gallate, reference compound]    Not met
COc1ccc(C(=O)c2ccccc2)c(O)c1 [Sample 2.3, 2-hydroxy-4-methoxybenzophenone]    Met
O=C(c1ccccc1)c1ccccc1    Not met
COc1ccc(C(=O)c2ccccc2O)c(O)c1 [Sample 2.4, 2,2'-dihydroxy-4-methoxybenzophenone]    Not met

----------
Let's look at some compounds and their measured Induction time.
# protocolNotes: PetroOxy test: induction time (resistance to oxidation)
# Type: physicochemical
# conditions: isosorbide aqueous solution with 100 ppm antioxidant; 120°C and 7 bars of oxygen
propertyLabel: Induction time (h)

COc1ccc(C(=O)c2ccccc2O)c(O)c1 [Sample 2.4, 2,2'-dihydroxy-4-methoxybenzophenone]    5.2
COc1ccc(C(=O)c2ccccc2)c(O)c1 [Sample 2.3, 2-hydroxy-4-methoxybenzophenone]    4.6
O=C(c1ccccc1)c1ccccc1    3.8
O=C(c1ccc(O)cc1)c1ccc(O)cc1 [Sample 2.2, 4,4'-dihydroxy-benzophenone]    3.9

----------
# protocolNotes: Yellow coloration index measurement (ASTM E313), before thermal treatment
# Assay type: physicochemical
# conditions: isosorbide solution with 100 ppm antioxidant; measured as a liquid at 65°C
Kind request: treat 2 YID as inclusive, so Yellow coloration index before thermal test at 2 YID or higher is fulfilled, anything lower is not fulfilled.

O=C(c1ccccc1)c1ccccc1    not fulfilled
COc1ccc(C(=O)c2ccccc2O)c(O)c1 [Sample 2.4, 2,2'-dihydroxy-4-methoxybenzophenone]    fulfilled
CCCOC(=O)c1cc(O)c(O)c(O)c1 [Sample 3, Propyl gallate, reference compound]    fulfilled
COc1ccc(C(=O)c2ccccc2)c(O)c1 [Sample 2.3, 2-hydroxy-4-methoxybenzophenone]    fulfilled
O=C(c1ccc(O)cc1)c1ccc(O)cc1 [Sample 2.2, 4,4'-dihydroxy-benzophenone]    fulfilled

Reference source for all entries: patent EP4527906A1
